For each entry below, report its Euclidean distance value.
System: A549
Experiment: Euclidean distance of Cell Painting phenotypic profile (signed KS, 77 features) to DMSO centroid (dimensionless distance); 5 or 10 uM (library dependent); higher = stronger phenotypic change vs DMSO (phenoactivity)
Settings: 48 h
Counter-ions that a name gives are not always drawn.
Just the number, please, no unit after it.

# Euclidean distance lookup, item NC(=O)OCC(COC(N)=O)c1ccccc1 [Felbamate]
0.883

# Euclidean distance lookup, item CC(C)C[C@H](NC(=O)CNC(=O)[C@H](Cc1ccc(O)cc1)NC(=O)[C@H](CO)NC(=O)[C@H](Cc1c[nH]c2ccccc12)NC(=O)[C@H](Cc1cnc[nH]1)NC(=O)[C@@H]1CCC(=O)N1)C(=O)N[C@@H](CCCNC(=N)N)C(=O)N1CCC[C@H]1C(=O)NCC(N)=O [Gonadorelin Acetate]
1.23

# Euclidean distance lookup, item CCCCCCCCOc1ccccc1C(=O)Nc1ccc(C(=O)OCC[N+](C)(CC)CC)cc1 [Otilonium Bromide]
1.09

# Euclidean distance lookup, item Cc1cn([C@H]2O[C@@H](CO)[C@H](O)[C@H]2F)c(=O)[nH]c1=O [Clevudine]
0.649

# Euclidean distance lookup, item CN(C/C=C/C#CC(C)(C)C)Cc1cccc2ccccc12 [Terbinafine]
0.66

# Euclidean distance lookup, item CC1Cc2ccccc2N1NC(=O)c1ccc(Cl)c(S(N)(=O)=O)c1 (stereo unspecified) [Indapamide]
0.679

# Euclidean distance lookup, item Cn1nc(C(C)(C)C)cc1C(=O)N[C@@H](Cc1cccc(Cl)c1)C(=O)NCC#N [Cathepsin Inhibitor 1]
2.28

# Euclidean distance lookup, item CC(=O)OCC(=O)NCCCOc1cccc(CN2CCCCC2)c1 [Roxatidine Acetate HCl]
0.853

# Euclidean distance lookup, item NCc1ccccc1CC(=O)N[C@@H]1C(=O)N2C(C(=O)O)=C(CSc3nnnn3CC(=O)O)CS[C@H]12 [Ceforanide]
0.791

# Euclidean distance lookup, item CCS(=O)(=O)Nc1ccc2c(c1)/C(=C(/Nc1ccc(CN3CCCCC3)cc1)c1ccccc1)C(=O)N2 [Hesperadin]
3.8

# Euclidean distance lookup, item CC(C)=CCOc1ccc(/C=C/C(=O)c2ccc(OCC=C(C)C)cc2OCC(=O)O)cc1 [Sofalcone]
1.09

# Euclidean distance lookup, item CCOC(=O)c1ccc(N)cc1 [Benzocaine hydrochloride]
0.334

# Euclidean distance lookup, item CC12CCC(CC1=O)C2(C)C (stereo unspecified) [Camphor]
0.742

# Euclidean distance lookup, item `CNC(=O)c1ccc(C)c(-n2c(C)cc(OCc3ccc(F)cc3F)c(Br)c2=O)c1`
1.29

# Euclidean distance lookup, item C=CCc1ccccc1OCC(O)CNC(C)C (stereo unspecified) [Alprenolol hydrochloride]
0.761

# Euclidean distance lookup, item C[C@]12C[C@H](O)[C@H]3[C@@H](CCC4=CC(=O)CC[C@@]43C)[C@@H]1CC[C@@H]2C(=O)CO [Corticosterone]
1.47
